Recorded values, source ChEMBL document CHEMBL5247622.

Experiment: Metabolic stability in human liver microsomes assessed as half life
Format: ADME, Microsome
recorded.endpoint: half-life (min)

COc1ccn2c(-c3ccc(NC(=O)c4ccc([N+](=O)[O-])o4)c(C)c3)cnc2c1	39.9

1 = COc1ccn2c(-c3ccc(NC(=O)c4ccc([N+](=O)[O-])o4)c(C)c3C(F)(F)F)cnc2c1
2 = COc1ccn2c(-c3ccc(NC(=O)c4ccc([N+](=O)[O-])o4)cc3F)cnc2c1
Would you let me know which has the greater half-life value, 1 or 2 ? # respond with the chosen item's label
1
(1: 50.1 min, 2: 25.7 min)

----------
Tested on: MGC-803
Assay: Antiproliferative activity against human MGC-803 cells assessed as reduction in cell viability incubated for 72 hrs by CCK-8 assay
Type: functional, cell-based
Conditions: MGC-803, 72 h
pIC50: −log10 of the molar value.
recorded.endpoint: pIC50

O=C(Nc1ccc(-c2cnc3cc(C4=CCN(C5COC5)CC4)ccn23)cc1)c1ccc([N+](=O)[O-])o1	5.96
O=C(Nc1ccc(-c2cnc3cc(Br)ccn23)cc1)c1ccc([N+](=O)[O-])o1	6.12
CN1CCN(c2ccn3c(-c4ccc(NC(=O)c5ccc([N+](=O)[O-])o5)cc4)cnc3c2)CC1	5.80
Cc1cc(NC(=O)c2ccc([N+](=O)[O-])o2)ccc1-c1cnc2ccccn12	6.05
COc1ccn2c(-c3ccc(NC(=O)c4ccc([N+](=O)[O-])o4)cc3F)cnc2c1	5.97
O=C(Nc1ccc(-c2cnc3cc(N4CCCC4)ccn23)cc1)c1ccc([N+](=O)[O-])o1	5.94
CN1CCCN(c2ccn3c(-c4ccc(NC(=O)c5ccc([N+](=O)[O-])o5)cc4)cnc3c2)CC1	5.45
O=C(Nc1ccc(-c2cnc3ccccn23)cc1)c1ccc([N+](=O)[O-])o1	6.23
O=C(Nc1ccc(-c2cnc3cc(Cl)ccn23)cc1)c1ccc([N+](=O)[O-])o1	5.34
Cc1cc(-c2cnc3ccccn23)ccc1NC(=O)c1ccc([N+](=O)[O-])o1	5.74

P = COc1ccn2c(-c3ccc(NC(=O)c4ccc([N+](=O)[O-])o4)c(C(F)(F)F)c3)cnc2c1
Q = COc1ccn2c(-c3ccc(NC(=O)c4ccc([N+](=O)[O-])o4)cc3)cnc2c1
Between P and Q , which one has the lower reported pIC50 value? # respond with the chosen item's label
P

----------
Test system: AGS
Experiment: Antiproliferative activity against human AGS cells assessed as reduction in cell viability incubated for 72 hrs by CCK-8 assay
Assay type: functional, cell-based
# pIC50 per record follows
Just so you know, pIC50 here is -log10 of the concentration in molar units; reply with that number alone.

O=C(Nc1ccc(-c2cnc3cc(C4=CCNCC4)ccn23)cc1)c1ccc([N+](=O)[O-])o1	5.89

The record that follows has no pIC50 shown yet.
According to the records, this compound O=C(Cc1c(-c2ccccc2)nc2ccccn12)Nc1ccc2c(c1)S(=O)(=O)C=C2 displays pIC50 of 5.81
